# experiment notes: Pharmacokinetics after oral administration in dogs
# Format: in vivo, beagle dogs
# details: dog, plasma; male beagle dogs, single oral administration, Mean

molecule | units text | AUC(0-inf)
CCN1[C@@H](C(=O)NC23CCC(C(=O)O)(CC2)CC3)[C@H](c2cccc(Cl)c2F)[C@]2(C(=O)Nc3cc(Cl)ccc32)C12CCCCC2 [APG-115 hydrate] | ng·h/mL | 33400

###

# experiment notes: Pharmacokinetics after oral administration in dogs
# Format: in vivo, beagle dogs
# details: dog, plasma; male beagle dogs, single oral administration, Mean

molecule | Tmax
CCN1[C@@H](C(=O)NC23CCC(C(=O)O)(CC2)CC3)[C@H](c2cccc(Cl)c2F)[C@]2(C(=O)Nc3cc(Cl)ccc32)C12CCCCC2 [APG-115 hydrate] | 6 h

Origin of the recorded values: patent US20240238251A9
